system: Caspase3 in Hela S100; assay: In-vitro caspase-3 activation assay in Hela S100 extract; format: biochemical; conditions: 100 nM compound, Hela S100, 1 mM dATP; slope versus control (compound 1 = Caspase std.)
REPORTED_PROPERTY: Caspase % (%)

Solved cases below.
compound="CN[C@@H](C)C(=O)N[C@@H](CCCCNC(=O)c1cccc(C(=O)NCCCC[C@H](NC(=O)[C@H](C)NC)C(=O)N2CCC[C@H]2C(=O)N[C@@H]2CCCc3ccccc32)c1)C(=O)N1CCC[C@H]1C(=O)N[C@@H]1CCCc2ccccc21.Cl.Cl [Compound 47]" measured_value=99
compound="CNC(C)C(=O)N[C@@H](CCCCCC[C@H](NC(=O)[C@H](C)NC)C(=O)N1CCC[C@H]1C(=O)NCc1ccccc1)C(=O)N1CCC[C@H]1C(=O)NCc1ccccc1 (some centres unmarked) [Compound 6]" measured_value=82
compound="CN[C@@H](C)C(=O)N[C@@H](Cc1cn(CCn2cc(C[C@H](NC(=O)[C@H](C)NC)C(=O)N3CCC[C@H]3C(=O)N[C@@H]3CCCc4ccccc43)nn2)nn1)C(=O)N1CCC[C@H]1C(=O)N[C@@H]1CCCc2ccccc21.Cl.Cl [Compound 20]" measured_value=99
compound="CN[C@@H](C)C(=O)N[C@@H](CCCCNC(=O)CC(=O)NCCCC[C@H](NC(=O)[C@H](C)NC)C(=O)N1CCC[C@H]1C(=O)N[C@@H]1CCCc2ccccc21)C(=O)N1CCC[C@H]1C(=O)N[C@@H]1CCCc2ccccc21.Cl.Cl [Compound 50]" measured_value=97
compound="CN[C@@H](C)C(=O)N[C@@H](CCCCNC(=O)NCCCC[C@H](NC(=O)[C@H](C)NC)C(=O)N1CCC[C@H]1C(=O)N[C@@H]1CCCc2ccccc21)C(=O)N1CCC[C@H]1C(=O)N[C@@H]1CCCc2ccccc21.Cl.Cl [Compound 48]" measured_value=103

[1] CN[C@@H](C)C(=O)N[C@@H](Cc1ccc(C#CC[C@H](NC(=O)[C@H](C)NC)C(=O)N2CCC[C@H]2C(=O)N[C@@H]2CCCc3ccccc32)cc1)C(=O)N1CCC[C@H]1C(=O)NC1CCCc2ccccc21.Cl (some centres unmarked) [Compound 36]
[2] CNC(C)C(=O)N[C@@H](CCCCCC[C@H](NC(=O)[C@H](C)NC)C(=O)N1CCC[C@H]1C(=O)NC(c1ccccc1)c1ccccc1)C(=O)N1CCC[C@H]1C(=O)NC(c1ccccc1)c1ccccc1 (some centres unmarked) [Compound 4]
Smaller Caspase % value? Options are 1 and 2 Answer = label.
2

[1] CC[C@H](NC)C(=O)N[C@@H](CC#CC#CC[C@H](NC(=O)[C@H](C)NC)C(=O)N1CCC[C@H]1C(=O)N[C@@H]1CCCc2ccccc21)C(=O)N1CCC[C@H]1C(=O)N[C@@H]1CCCc2ccccc21.Cl.Cl [Compound 16]
[2] CNC(C)C(=O)N[C@@H](CC#CC#CC[C@H](NC(=O)[C@H](C)NC)C(=O)N1CCC[C@H]1C(=O)NC(c1ccccc1)c1ccccc1)C(=O)N1CCC[C@H]1C(=O)NC(c1ccccc1)c1ccccc1 (some centres unmarked) [Compound 3]
Param metric = Caspase %; output whichever of 1 , 2 has the minimum value. Refer to your chosen entry by its label in the reply.
2
(2: 48%, 1: 107%)
